Test system: guinea pigs excreting normal feces
Experiment Notes: Antidiarrheal effect: observation of feces after oral administration of saccharides or sugar alcohols with or without polysaccharides (Example 1)
Format: in vivo
Condition Context: active agent 2.8 g/kg oral, alone or with additives of the label; most serious condition within 6 hours
Measurement Label: Hardness of feces: Muddy (number of animals)

O[C@@H]1CO[C@H]2[C@@H]1OC[C@@H]2O [Isosorbitol]: 1

A. O=C[C@H](O)[C@@H](O)[C@H](O)CO [Xylose, xylose]
B. OC[C@@H](O)[C@H](O)[C@@H](O)CO [Xylitol, xylitol]
C. OC[C@@H](O)[C@@H](O)CO [Erythritol, erythritol]
Descending sort on Hardness of feces: Muddy (number of animals) required. Quick reminder: the answer is the labels in the order asked.
C, B, A

====

System: guinea pigs excreting normal feces
Experiment Notes: Antidiarrheal effect: observation of feces after oral administration of saccharides or sugar alcohols with or without polysaccharides (Example 1)
Format: in vivo
Condition Context: active agent 2.8 g/kg oral, alone or with additives of the label; most serious condition within 6 hours
Measurement Label: Hardness of feces: Slightly soft (number of animals)

O=C[C@H](O)[C@@H](O)[C@H](O)CO: 1

a. OC[C@@H](O)[C@H](O)[C@@H](O)CO
b. O[C@@H]1CO[C@H]2[C@@H]1OC[C@@H]2O
c. OC[C@@H](O)[C@@H](O)CO
Descending sort on Hardness of feces: Slightly soft (number of animals) required. Quick reminder: the answer is the labels in the order asked.
b, a, c
(b: 2, a: 1, c: 0)

====

Test system: guinea pigs excreting normal feces
Experiment Notes: Antidiarrheal effect: observation of feces after oral administration of saccharides or sugar alcohols with or without polysaccharides (Example 1)
Assay type: in vivo
Condition Context: active agent 2.8 g/kg oral, alone or with additives of the label; most serious condition within 6 hours
Measurement Label: Hardness of feces: Normal (number of animals)

Answered examples (2):
O=C[C@H](O)[C@@H](O)[C@H](O)CO [Xylose, xylose]: 0
OC[C@@H](O)[C@H](O)[C@@H](O)CO [Xylitol, xylitol]: 0

A. OC[C@@H](O)[C@@H](O)CO [Erythritol, erythritol]
B. O[C@@H]1CO[C@H]2[C@@H]1OC[C@@H]2O [Isosorbitol]
Which record would sort first by descending Hardness of feces: Normal (number of animals), A or B ? When you have decided, please share the label of that item.
B

====

System: guinea pigs excreting normal feces
Experiment Notes: Antidiarrheal effect: observation of feces after oral administration of saccharides or sugar alcohols with or without polysaccharides (Example 1)
Format: in vivo
Condition Context: active agent 2.8 g/kg oral, alone or with additives of the label; most serious condition within 6 hours
Measurement Label: Hardness of feces: Soft (number of animals)

Answered examples (2):
O[C@@H]1CO[C@H]2[C@@H]1OC[C@@H]2O [Isosorbitol]: 2
OC[C@@H](O)[C@H](O)[C@@H](O)CO [Xylitol, xylitol]: 1

a. OC[C@@H](O)[C@@H](O)CO [Erythritol, erythritol]
b. O=C[C@H](O)[C@@H](O)[C@H](O)CO [Xylose, xylose]
Between item a and item b , which reported Hardness of feces: Soft (number of animals) is smaller? When you have decided, please share the label of that item.
a
(a: 0, b: 3)

====

Quick reference: Regression line IR-S vs IR-L: slope of the listed items.
System: experimental endolymphatic hydrops
Experiment Notes: Endolymphatic hydrops decompression effect: IR-L, IR-S and regression lines in the operated ear
Format: in vivo, guinea pigs
Condition Context: operated ears; active agent 2.8 g/kg oral, alone or with additive; 3 hours after
# respond with the number and nothing more

Answered examples (3):
OC[C@@H](O)[C@H](O)[C@@H](O)CO [Xylitol, xylitol]: 1.208
O=C[C@H](O)[C@@H](O)[C@H](O)CO [Xylose, xylose]: 1.364
OC[C@@H](O)[C@@H](O)CO [Erythritol, erythritol]: 1.309

Known value: experimental endolymphatic hydrops Regression line IR-S vs IR-L: slope of the compound OCC(O)CO [Gly alone, glycerol] equals 0.887
